# key: entry, value: AUC
- Assay overview: AUC in mouse at 1 mg/kg, po
- Assay type: ADME, organism-based
- Conditions: in vivo
Just the number please, in ng·h/mL, no unit attached.

{"Smiles data": "CCNC(=O)c1cc2c(-c3cc(C(C)(C)O)ccc3Oc3c(C)cc(F)cc3C)cn(C)c(=O)c2[nH]1", "Test result": 2350}

Next item in the queue.
For this molecule ( `CCNC(=O)c1cc2c(-c3cc(S(=O)(=O)CC)ccc3Oc3c(C)cccc3C)cn(C)c(=O)c2[nH]1` ), measured AUC is 760

* * *

Catalogue of compounds with associated pKi
- Tested target: Bromodomain-containing protein 4 (Homo sapiens, UniProt O60885)
- Assay overview: biochemical
- Type: cell-based
- Description: Inhibition of human N-terminal His6 tagged BRD4 BD1 (57 to 168) residues expressed in Escherichia coli BL21(DE3) cells after 1 hr by TR-FRET assay
Note on units: pKi is unitless, being -log10 of a concentration expressed in mol/L.

Example cases with answers are listed next.
{"Smiles data": "CCN(C)C(=O)c1cc2c(-c3cc(S(C)(=O)=O)ccc3Oc3ccc(F)cc3F)cn(C)c(=O)c2[nH]1", "Tested target": "Bromodomain-containing protein 4 (Homo sapiens, UniProt O60885)", "Measurement kind": "pKi", "Test result": 7.89}
{"Smiles data": "CCNC(=O)c1cc2c(-c3cc(S(=O)(=O)CC)ccc3Oc3cc(C)cc(C)c3)cn(C)c(=O)c2[nH]1", "Tested target": "Bromodomain-containing protein 4 (Homo sapiens, UniProt O60885)", "Measurement kind": "pKi", "Test result": 8.08}
{"Smiles data": "CCNC(=O)c1cc2c(-c3cc(S(=O)(=O)CC)ccc3Oc3c(C)cccc3Br)cn(C)c(=O)c2[nH]1", "Tested target": "Bromodomain-containing protein 4 (Homo sapiens, UniProt O60885)", "Measurement kind": "pKi", "Test result": 7.35}

We now examine a further compound.
Entry `CCNC(=O)c1cc2c(-c3cc(S(=O)(=O)CC)ccc3Oc3c(C)cccc3C)cn(C)c(=O)c2[nH]1` , pKi reported as 6.92

* * *

- Assay overview: Half life in rat at 1 mg/kg, po
- Format: ADME, organism-based
- Conditions: in vivo
Measurement kind: half-life (h)
Entry rule: numbers only, all in h.

{"Smiles data": "CCNC(=O)c1cc2c(-c3cc(C(C)(C)O)ccc3Oc3c(C)cc(F)cc3C)cn(C)c(=O)c2[nH]1", "half-life (h)": 3.4}

// next item, half-life requested
Kindly note the recorded half-life for `CCNC(=O)c1cc2c(-c3cc(S(=O)(=O)CC)ccc3Oc3c(C)cccc3C)cn(C)c(=O)c2[nH]1` , which is 1

* * *

- Tested target: Bromodomain-containing protein 4 (Homo sapiens)
- Assay overview: biochemical
- Assay type: cell-based
Measurement kind: pKi
Field pKi (float): negative decimal logarithm of the concentration in molar.

Take a look at these entries with their results.
{"Smiles data": "CCNC(=O)c1cc2c(-c3cc(NC(C)=O)ccc3Oc3c(C)cc(F)cc3C)cn(C)c(=O)c2[nH]1", "Measurement kind": "pKi", "Test result": 7.05}
{"Smiles data": "CCNC(=O)c1cc2c(-c3cc(S(C)(=O)=O)ccc3Oc3c(C)cccc3C)cn(C)c(=O)c2[nH]1", "Measurement kind": "pKi", "Test result": 6.85}

Lab note: measured pKi of `CCNC(=O)c1cc2c(-c3cc(CO)ccc3Oc3c(C)cccc3C)cn(C)c(=O)c2[nH]1` was 6.57

So, `Cc1cccc(C)c1Oc1ccc(C(C)(C)O)cc1-c1cn(C)c(=O)c2[nH]c(C(=O)NC(C)(C)C)cc12` ? Its pKi was 6.66

pKi in this record for `CCNC(=O)c1cc2c(-c3cc(S(=O)(=O)CC)ccc3Oc3c(C)cccc3C(C)(C)C)cn(C)c(=O)c2[nH]1` : 6.40

The reported pKi of the compound `CCNC(=O)c1cc2c(-c3cc(S(=O)(=O)CC)ccc3Oc3ccccc3C(C)(C)C)cn(C)c(=O)c2[nH]1` was 7.66

# pKi (compound: `CCNC(=O)c1cc2c(-c3cc(S(=O)(=O)CC)ccc3N3CCc4cccc(C)c43)cn(C)c(=O)c2[nH]1` ) is 8.05
